assay-method-text: Phase I study CXR1002-001: plasma pharmacokinetics (LC-MS/MS)
Type: in vivo, human
run-parameters: human, plasma, oral, 200 mg, Patient 010 Dose 200 mg; 528 hr (Day 23); read-out: Concentration
observation-type: concentration at 528 h (µM)

{"columns": ["smiles-notation", "readout-value"],
 "data": [
  ["O=C(O)C(F)(F)C(F)(F)C(F)(F)C(F)(F)C(F)(F)C(F)(F)C(F)(F)F", 191]
]}

---

assay-method-text: Phase I study CXR1002-001: plasma pharmacokinetics (LC-MS/MS)
Assay type: in vivo, human
run-parameters: human, plasma, oral, 200 mg, Patient 009 Dose 200 mg; 508 hr; read-out: Concentration
observation-type: concentration at 508 h (µM)

{"columns": ["smiles-notation", "observation-type", "readout-unit", "readout-value"],
 "data": [
  ["O=C(O)C(F)(F)C(F)(F)C(F)(F)C(F)(F)C(F)(F)C(F)(F)C(F)(F)F", "concentration at 508 h", "µM", 362]
]}

---

assay-method-text: Phase I study CXR1002-001: plasma pharmacokinetics (LC-MS/MS)
Format: in vivo, human
run-parameters: human, plasma, po, 1000 mg, Patient 042, 1000 mg weekly oral dose, Time 674 hr; read-out: Concentration (plasma level)
Excerpt: PK samples, PD (fasting) samples, blood glucose, and blood triglyceride samples, were taken over a 6-week period. Dose limiting toxicity (DLT) will be based on the toxicity assessments over the first 3-week period of the repeat dosing schedule. […]

{"columns": ["smiles-notation", "readout-unit", "concentration at 674 hr"],
 "data": [
  ["O=C(O)C(F)(F)C(F)(F)C(F)(F)C(F)(F)C(F)(F)C(F)(F)C(F)(F)F", "µM", 1180]
]}

---

assay-method-text: Phase I study CXR1002-001: plasma pharmacokinetics (LC-MS/MS)
Format: in vivo, human
run-parameters: human, plasma, oral, 950 mg, Patient 031, 950 mg, person, plasma, 675 hr; read-out: Concentration
observation-type: concentration at 675 h (µM)

{"columns": ["smiles-notation", "observation-type", "readout-value"],
 "data": [
  ["O=C(O)C(F)(F)C(F)(F)C(F)(F)C(F)(F)C(F)(F)C(F)(F)C(F)(F)F", "concentration at 675 h", 882]
]}

---

assay-method-text: Phase I study CXR1002-001: plasma pharmacokinetics (LC-MS/MS)
Type: in vivo, human
run-parameters: human, plasma, oral, 50 mg, Patient 001 Dose 50 mg; 192 hr (Day 8); read-out: Concentration

{"columns": ["smiles-notation", "readout-unit", "concentration at 192 hr"],
 "data": [
  ["O=C(O)C(F)(F)C(F)(F)C(F)(F)C(F)(F)C(F)(F)C(F)(F)C(F)(F)F", "µM", 8.54]
]}

---

assay-method-text: Phase I study CXR1002-001: plasma pharmacokinetics (LC-MS/MS)
Format: in vivo, human
run-parameters: human, plasma, oral, 1000 mg, Patient 040, 1000 mg, person, plasma, 339 hr; read-out: Concentration
observation-type: concentration at 339 h (µM)

{"columns": ["smiles-notation", "readout-unit", "readout-value"],
 "data": [
  ["O=C(O)C(F)(F)C(F)(F)C(F)(F)C(F)(F)C(F)(F)C(F)(F)C(F)(F)F", "µM", 427]
]}

---

assay-method-text: Phase I study CXR1002-001: plasma pharmacokinetics (LC-MS/MS)
Type: in vivo, human
run-parameters: human, plasma, oral, 600 mg, Patient 018, 600 mg, person, plasma, 170 hr; read-out: Concentration

{"columns": ["compound", "concentration at 170 h (µM)"],
 "data": [
  ["O=C(O)C(F)(F)C(F)(F)C(F)(F)C(F)(F)C(F)(F)C(F)(F)C(F)(F)F [CXR1002]", 398]
]}

---

assay-method-text: Phase I study CXR1002-001: plasma pharmacokinetics (LC-MS/MS)
Format: in vivo, human
run-parameters: human, plasma, oral, 1200 mg, Patient 033, 1200 mg, person, plasma, 844 hr; read-out: Concentration
observation-type: concentration at 844 hr (µM)

{"columns": ["compound", "observation-type", "readout-unit", "readout-value"],
 "data": [
  ["O=C(O)C(F)(F)C(F)(F)C(F)(F)C(F)(F)C(F)(F)C(F)(F)C(F)(F)F [CXR1002]", "concentration at 844 hr", "µM", 1200]
]}

---

assay-method-text: Phase I study CXR1002-001: plasma pharmacokinetics (LC-MS/MS)
Format: in vivo, human
run-parameters: female, human, plasma, oral, Female, plasma, 504 hr (Day 22); read-out: Concentration

{"columns": ["smiles-notation", "concentration at 504 h / µM"],
 "data": [
  ["O=C(O)C(F)(F)C(F)(F)C(F)(F)C(F)(F)C(F)(F)C(F)(F)C(F)(F)F", 333]
]}

---

assay-method-text: Phase I study CXR1002-001: plasma pharmacokinetics (LC-MS/MS)
Format: in vivo, human
run-parameters: human, plasma, oral, 1200 mg, Patient 034, 1200 mg, person, plasma, 528 hr (Day 23); read-out: Concentration
observation-type: concentration at 528 hr (µM)

{"columns": ["compound", "readout-value"],
 "data": [
  ["O=C(O)C(F)(F)C(F)(F)C(F)(F)C(F)(F)C(F)(F)C(F)(F)C(F)(F)F [CXR1002]", 1360]
]}

---

assay-method-text: Phase I study CXR1002-001: plasma pharmacokinetics (LC-MS/MS)
Assay type: in vivo, human
run-parameters: human, plasma, po, 1200 mg, Patient 037, 1200 mg weekly oral dose, Time 528 hr (Day 23); read-out: Concentration (plasma level)
Excerpt: PK samples, PD (fasting) samples, blood glucose, and blood triglyceride samples, were taken over a 6-week period. Dose limiting toxicity (DLT) will be based on the toxicity assessments over the first 3-week period of the repeat dosing schedule. […]
observation-type: concentration at 528 h (µM)

{"columns": ["compound", "readout-value"],
 "data": [
  ["O=C(O)C(F)(F)C(F)(F)C(F)(F)C(F)(F)C(F)(F)C(F)(F)C(F)(F)F [CXR1002]", 1390]
]}

---

assay-method-text: Phase I study CXR1002-001: plasma pharmacokinetics (LC-MS/MS)
Assay type: in vivo, human
run-parameters: human, plasma, oral, 300 mg, Patient 014 Dose 300 mg; Week 12
observation-type: concentration at 12 week (µM)

{"columns": ["smiles-notation", "readout-value"],
 "data": [
  ["O=C(O)C(F)(F)C(F)(F)C(F)(F)C(F)(F)C(F)(F)C(F)(F)C(F)(F)F", 890]
]}

---

assay-method-text: Phase I study CXR1002-001: plasma pharmacokinetics (LC-MS/MS)
Type: in vivo, human
run-parameters: human, plasma, oral, 600 mg, Patient 020, 600 mg, person, plasma, 508 hr; read-out: Concentration

{"columns": ["compound", "concentration at 508 h, µM"],
 "data": [
  ["O=C(O)C(F)(F)C(F)(F)C(F)(F)C(F)(F)C(F)(F)C(F)(F)C(F)(F)F [CXR1002]", 536]
]}

---

assay-method-text: Phase I study CXR1002-001: plasma pharmacokinetics (LC-MS/MS)
Type: in vivo, human
run-parameters: human, plasma, oral, 50 mg, Patient 001 Dose 50 mg; Day 227
observation-type: concentration at 227 day (µM)

{"columns": ["smiles-notation", "observation-type", "readout-value"],
 "data": [
  ["O=C(O)C(F)(F)C(F)(F)C(F)(F)C(F)(F)C(F)(F)C(F)(F)C(F)(F)F", "concentration at 227 day", 308]
]}

---

Tested on: OV-90
assay-method-text: ATP depletion cytotoxicity assay 48 hr
Format: cell-based, human
run-parameters: Homo sapiens, OV-90, 48 h, Example 7, 48 hour, CXR1002 0-1 mM, U0126 fixed 10 μM where combined, read-out: IC50
pIC50: −log10 of the molar value.
observation-type: pIC50

{"columns": ["smiles-notation", "readout-value"],
 "data": [
  ["O=C(O)C(F)(F)C(F)(F)C(F)(F)C(F)(F)C(F)(F)C(F)(F)C(F)(F)F", 3.15]
]}

---

assay-method-text: Phase I study CXR1002-001: plasma pharmacokinetics (LC-MS/MS)
Format: in vivo, human
run-parameters: human, plasma, oral, 1200 mg, Patient 034, 1200 mg, person, plasma, 507 hr; read-out: Concentration
observation-type: concentration at 507 hr

{"columns": ["smiles-notation", "observation-type", "readout-value"],
 "data": [
  ["O=C(O)C(F)(F)C(F)(F)C(F)(F)C(F)(F)C(F)(F)C(F)(F)C(F)(F)F", "concentration at 507 hr", "1220 µM"]
]}

---

assay-method-text: Phase I study CXR1002-001: plasma pharmacokinetics (LC-MS/MS)
Format: in vivo, human
run-parameters: human, plasma, oral, 300 mg, Patient 011 Dose 300 mg; 24 hr (Day 2); read-out: Concentration

{"columns": ["molecule", "readout-unit", "concentration at 24 h"],
 "data": [
  ["O=C(O)C(F)(F)C(F)(F)C(F)(F)C(F)(F)C(F)(F)C(F)(F)C(F)(F)F [CXR1002]", "µM", 95.9]
]}
